biological target: PARP-1 F1+F2 (24-kDa DBD) (Homo sapiens, UniProt P09874 1-214); test: fluorescence anisotropy; 50; 50 mM Tris-HCl pH 7.0, 150 uM ZnSO4, 4 mM DTT, 25 C; NaCl 0-200 mM (T2, as in cof; 10 nM DNA) or 25 mM (T3 mutants; 25 nM DNA); settings: protein: recombinant; label: fluorescein-dT at T8 and T30; circular closed dumbbell, two tetraloops, no nick
Sequence (P09874 1-214): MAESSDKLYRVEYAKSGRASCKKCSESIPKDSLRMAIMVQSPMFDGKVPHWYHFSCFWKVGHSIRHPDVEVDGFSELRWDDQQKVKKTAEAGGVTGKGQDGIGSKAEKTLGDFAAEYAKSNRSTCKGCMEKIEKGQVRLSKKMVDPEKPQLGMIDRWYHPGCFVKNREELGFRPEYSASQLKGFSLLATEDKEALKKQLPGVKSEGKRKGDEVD
Reported metric: Kd (nM)
Could you give me the number in nM? Just the number is fine.

Supply reported Kd belonging to this binder: CGGTCGATCGTAAGATCGACCGCGGTCGATCGTAAGATCGACCG (structured_DNA, circular, nick sealed by T4 DNA ligase) [ligated (circular) symmetric 44-nt dumbbell, 2x fluorescein-dT]
166

These data points were gathered from paper PMC3094755.
